# Read-out: ABC Transporter (ABCB11), ABCB11 (gene 8647)
# TEST PROTOCOL: LTEA_HepaRG_ABCB11: Life Technologies and Expression Analysis (LTEA) Assay for ABC Transporter (ABCB11) using HepaRG (AID 2283463)
# TEST SETTINGS: mRNA level, 48 h; actives raise or lower the signal
Active and inactive are the calls of the source. Rule for the calls: active = hit-call score of the fitted dose curve at least 0.9, where 1 is the maximum; inactive = score below 0.9.
Hello, when you answer, please use one of the following outcomes: active, inactive

Solved entries:
CCc1nn(C2CCCCC2)c2cc(C3(C#N)CCC(C(=O)O)CC3)ccc12 (stereo unspecified) = active
Cc1cc(C)c(O)c(C)c1 = inactive
CCCCCCCCCCCCN1CCCC1=O = inactive
OCCC(F)(F)C(F)(F)C(F)(F)C(F)(F)C(F)(F)C(F)(F)C(F)(F)C(F)(F)F = inactive
CC(=O)NC1(c2cccc(F)c2)CCN(CC[C@@]2(c3ccc(Cl)c(Cl)c3)CN(c3ccccc3)C(=O)CO2)CC1 = active

Now turn to the next molecule.
Challenge: # outcome recorded in this test, key = Oc1cccc(O)c1
Response given: inactive

Ref: PubChem BioAssay (EPA / NIEHS)
